Values were extracted from patent US11401274B2.

- TARGET UNDER TEST: human PDE1B (Homo sapiens (Human), UniProt Q01064)
- TEST PROTOCOL: Ca2+ calmodulin dependent PDE enzyme assay (SPA, [3H]cAMP), PDE1B
- Format: biochemical
- RUN PARAMETERS: [3H]cAMP 47 nM; enzyme 0.074 nM; read-out: PDE 1B IC50 (nM) ± SD (n = number of runs)
READOUT KIND: IC50 (nM)

# COMPOUND, QUANTITY UNIT, MEASURED VALUE
measured = [
    ("CCCCn1c2c(n3c(C4(C5CC5)CC4)nnc3c1=O)CCOC2 [Example 7]", "nM", 12),
    ("O=c1c2nnc(C3(C4CC4)CC3)n2c2c(n1CC1CC1)CCCCC2 [Example 8]", "nM", 6.6),
    ("CCCn1c2c(n3c(C4(C5CC5)CC4)nnc3c1=O)CCCC2 [Example 1]", "nM", 3.1),
    ("O=c1c2nnc(C3(C4CC4)CC3)n2c2c(n1CC1CCC1)CCOC2 [Example 5]", "nM", 4.2),
    ("CCCCn1c2c(n3c(C4(C5CC5)CC4)nnc3c1=O)COCC2 [Example 4]", "nM", 7.8),
]

1. CCCCn1c2c(n3c(C4(C5CC5)CC4)nnc3c1=O)CCCC2 [Example 2]
2. O=c1c2nnc(C3(C4CC4)CC3)n2c2c(n1CC1CC1)CCOC2 [Example 3]
3. O=c1c2nnc(C3(C4CC4)CC3)n2c2c(n1CC1CC1)COCC2 [Example 6]
Please put the entries in order of rising IC50. A ranking is expressed here by listing the labels in the requested order.
1, 2, 3
(1: 4.1 nM, 2: 8.7 nM, 3: 14.9 nM)
